Target Or System: T1, soluble human insulin receptor-immunoglobulin heavy chain chimera (sIR-Fc) (human, UniProt P06213-2 28-944, limits assumed)
T1 construct: extracellular domain; not shown: immunoglobulin heavy chain constant domains
T1 sequence (P06213 other isoform, or with tags, fused parts or gaps mutant limits assumed): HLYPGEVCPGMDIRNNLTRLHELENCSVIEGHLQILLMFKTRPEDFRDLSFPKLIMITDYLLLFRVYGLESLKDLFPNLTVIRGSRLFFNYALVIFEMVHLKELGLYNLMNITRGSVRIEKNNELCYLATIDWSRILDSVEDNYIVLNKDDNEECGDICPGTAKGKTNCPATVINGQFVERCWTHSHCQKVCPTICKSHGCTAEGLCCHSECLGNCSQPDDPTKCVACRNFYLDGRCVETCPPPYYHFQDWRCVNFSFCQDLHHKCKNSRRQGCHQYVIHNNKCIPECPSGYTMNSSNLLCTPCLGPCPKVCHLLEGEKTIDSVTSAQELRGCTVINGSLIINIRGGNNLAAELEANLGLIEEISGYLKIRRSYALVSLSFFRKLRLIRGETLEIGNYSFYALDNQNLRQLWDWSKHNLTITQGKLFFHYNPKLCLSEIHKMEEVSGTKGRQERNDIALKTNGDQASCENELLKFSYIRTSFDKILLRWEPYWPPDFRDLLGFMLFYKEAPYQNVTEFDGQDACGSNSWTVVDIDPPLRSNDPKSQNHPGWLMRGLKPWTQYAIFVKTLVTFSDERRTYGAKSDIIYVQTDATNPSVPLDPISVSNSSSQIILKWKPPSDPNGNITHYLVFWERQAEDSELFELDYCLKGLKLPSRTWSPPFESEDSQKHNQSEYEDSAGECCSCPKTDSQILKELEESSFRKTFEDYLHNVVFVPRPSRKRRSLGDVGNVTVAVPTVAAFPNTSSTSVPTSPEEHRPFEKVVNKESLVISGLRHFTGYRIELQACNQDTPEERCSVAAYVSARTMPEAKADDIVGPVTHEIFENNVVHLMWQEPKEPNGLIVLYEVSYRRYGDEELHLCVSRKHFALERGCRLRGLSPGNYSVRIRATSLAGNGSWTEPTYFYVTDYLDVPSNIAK
Test Method Notes: FP competition against FITC-RP9 on sIR-Fc

| Binder | IC50 |
| --- | --- |
| CWARPCGDAANFYDWFVQQAS (also called C1 (D112); D112) [C1] | 52 nM |
